For each of the compounds below, state its Efficacy in % found.
tested on: Phytophthora infestans; type: in vivo; details: tomato plants, protective, 3 days after inoculation; 0.25 ppm a.i.
Give just the numeric value; % need not be written.

Query: Write down the reported Efficacy in % found of O=C(NCc1ncc(C(F)(F)F)cc1Cl)c1c(Cl)cccc1Cl [fluopicolide] , test system: Phytophthora infestans.
Reply: 4

Query: Write down the reported Efficacy in % found of CCC(C)(NC(=O)c1cc(Cl)c(C)c(Cl)c1)C(=O)CCl (stereo not shown) [zoxamide] , test system: Phytophthora infestans.
Reply: 18

Query: Write down the reported Efficacy in % found of CC(C)[C@H](NC(=O)O)C(=O)N[C@H](C)c1nc2ccc(F)cc2s1 , test system: Phytophthora infestans.
Reply: 16

Query: Write down the reported Efficacy in % found of CCCCCCNc1cccc(CON=C(c2ccccc2)c2nnnn2C)n1 , test system: Phytophthora infestans.
Reply: 48
